Attribution: patent US20210301025A1

- measuredOn: EGFR (form used in the assay not stated) (human, UniProt P00533 25-645, limits assumed)
- testProtocol: ELISA, NEM conjugate, 500 nM
# label = bin(measured binding relative to P54AR4-83v2 parent), where bins are zone 1 = under 0.4 ratio, zone 2 = from 0.4 ratio up to 0.9 ratio, zone 3 = 0.9 ratio and over

P54AR4-83v2 V9C, NEM conjugate (designed binder, not shown: small tags and cut ends, N-ethyl maleimide (NEM) on Cys 9) LPAPKNLVCSEVTEDSARLSWDDPWAFYESFLIQYQESEKVGEAIVLTVPGSERSYDLTGLKPGTEYTVSIYGVHNVYKDTNMRGLPLSAIFTT; zone 3
P54AR4-83v2 G73C, NEM conjugate (designed binder, not shown: small tags and cut ends, N-ethyl maleimide (NEM) on Cys 73) LPAPKNLVVSEVTEDSARLSWDDPWAFYESFLIQYQESEKVGEAIVLTVPGSERSYDLTGLKPGTEYTVSIYCVHNVYKDTNMRGLPLSAIFTT; zone 1
P54AR4-83v2 T59C, NEM conjugate (designed binder, not shown: small tags and cut ends, N-ethyl maleimide (NEM) on Cys 59) LPAPKNLVVSEVTEDSARLSWDDPWAFYESFLIQYQESEKVGEAIVLTVPGSERSYDLCGLKPGTEYTVSIYGVHNVYKDTNMRGLPLSAIFTT; zone 3

# input for lookup
QUERY: In plain terms, what class is P54AR4-83v2 S16C, NEM conjugate (designed binder, not shown: small tags and cut ends, N-ethyl maleimide (NEM) on Cys 16) LPAPKNLVVSEVTEDCARLSWDDPWAFYESFLIQYQESEKVGEAIVLTVPGSERSYDLTGLKPGTEYTVSIYGVHNVYKDTNMRGLPLSAIFTT ?
RESULT: zone 2
